# System: NCI-H460
# test_method_notes: cells
# Format: functional
# condition_summary: Homo sapiens, time 24-72 hrs
# Description: Antiproliferative activity against human NCI-H460 cells assessed as inhibition of cell growth at 10 uM measured after 24 to 72 hrs by SRB method relative to control
The following compounds are listed with their measured inhibition at 10 µM values.
Write it as a number; the unit % goes unstated.

[
  {
    "compound": "COc1cccc(C(=O)Nc2cccc(C3CCc4c(cc(OC)c(OC)c4OC)O3)c2)c1 (stereo not given)",
    "measured_attribute": "inhibition at 10 µM",
    "reported": 4.3
  },
  {
    "compound": "COc1cc2c(c(OC)c1OC)CCC(c1cccc(NC(=O)c3cccc(Cl)c3)c1)O2 (stereo not given)",
    "measured_attribute": "inhibition at 10 µM",
    "reported": 3.06
  },
  {
    "compound": "COc1ccccc1NC(=O)c1cccc(C2CCc3c(cc(OC)c(OC)c3OC)O2)c1 (stereo not given)",
    "measured_attribute": "inhibition at 10 µM",
    "reported": 2.86
  },
  {
    "compound": "COc1cc2c(c(OC)c1OC)CCC(c1cccc(C(=O)Nc3ccc([N+](=O)[O-])cc3)c1)O2 (stereo not given)",
    "measured_attribute": "inhibition at 10 µM",
    "reported": 41.1
  }
]

Could you now consider this next compound?
inhibition at 10 µM recorded for this compound, COc1cc2c(c(OC)c1OC)CCC(c1cccc(C(=O)NC(C)C)c1)O2 (stereo not given) , is 2.47

====

# Tested on: NCI-H460
# test_method_notes: cells
# Type: functional
# condition_summary: Homo sapiens, time 24-72 hrs
molecules and their reported inhibition at 10 µM
Quick reminder: number only, in %, skip the unit.

[
  {
    "molecule": "COc1cc2c(c(OC)c1OC)CCC(c1cccc(C(=O)Nc3ccc(C#N)cc3)c1)O2 (stereo not drawn)",
    "reported": 43.5
  },
  {
    "molecule": "COc1cccc(NC(=O)c2cccc(C3CCc4c(cc(OC)c(OC)c4OC)O3)c2)c1 (stereo not drawn)",
    "reported": 16
  },
  {
    "molecule": "COc1cc2c(c(OC)c1OC)CCC(c1cccc(NC(=O)c3ccc([N+](=O)[O-])cc3)c1)O2 (stereo not drawn)",
    "reported": 29
  }
]

Moving on to another molecule below.
Given item COc1cc(C(=O)Nc2cccc(C3CCc4c(cc(OC)c(OC)c4OC)O3)c2)cc(OC)c1OC (stereo not drawn) , the value recorded as its inhibition at 10 µM is 12.7

====

# Tested on: A549
# test_method_notes: cells
# Format: functional
# condition_summary: Homo sapiens, time 24-72 hrs
# Description: Antiproliferative activity against human A549 cells assessed as inhibition of cell growth at 10 uM measured after 24 to 72 hrs by SRB method relative to control
measured_attribute: inhibition at 10 µM
Please provide the amount together with its unit, number first.

[
  {
    "molecule": "COc1cc2c(c(OC)c1OC)CCC(c1cccc(NC(=O)c3ccc([N+](=O)[O-])cc3)c1)O2 (stereo not drawn)",
    "inhibition at 10 µM": "32.2%"
  },
  {
    "molecule": "COc1cc2c(c(OC)c1OC)CCC(c1cccc(C(=O)Nc3cccc(Br)c3)c1)O2 (stereo not drawn)",
    "inhibition at 10 µM": "35.5%"
  },
  {
    "molecule": "COc1cc2c(c(OC)c1OC)CCC(c1cccc(C(=O)Nc3cccc(Cl)c3)c1)O2 (stereo not drawn)",
    "inhibition at 10 µM": "38.5%"
  },
  {
    "molecule": "COc1cc2c(c(OC)c1OC)CCC(c1cccc(C(=O)Nc3ccc(C#N)cc3)c1)O2 (stereo not drawn)",
    "inhibition at 10 µM": "49.1%"
  },
  {
    "molecule": "COc1ccccc1C(=O)Nc1cccc(C2CCc3c(cc(OC)c(OC)c3OC)O2)c1 (stereo not drawn)",
    "inhibition at 10 µM": "11.7%"
  }
]

# inhibition at 10 µM of COc1cc2c(c(OC)c1OC)CCC(c1cccc(NC(=O)c3ccc(Br)cc3)c1)O2 (stereo not drawn) = 32.6%

Given item COc1ccc(NC(=O)c2cccc(C3CCc4c(cc(OC)c(OC)c4OC)O3)c2)cc1 (stereo not drawn) , the value recorded as its inhibition at 10 µM is 67.9%

response.value for COc1cc2c(c(OC)c1OC)CCC(c1cccc(C(=O)Nc3ccc([N+](=O)[O-])cc3)c1)O2 (stereo not drawn) (field: inhibition at 10 µM) = 44.8%

====

# Tested on: NCI-H460
# test_method_notes: cells
# Assay type: functional
# condition_summary: Homo sapiens, time 24-72 hrs
Reported inhibition at 10 µM by item:
Write it as a number; the unit % goes unstated.

Solved entries:
[
  {
    "compound": "COc1cc2c(c(OC)c1OC)CCC(c1cccc(C(=O)Nc3cccc(Br)c3)c1)O2 (stereo not given)",
    "measured_attribute": "inhibition at 10 µM",
    "endpoint_unit": "%",
    "reported": 29.5
  },
  {
    "compound": "COc1cc2c(c(OC)c1OC)CCC(c1cccc(C(=O)Nc3cccc(Cl)c3)c1)O2 (stereo not given)",
    "measured_attribute": "inhibition at 10 µM",
    "endpoint_unit": "%",
    "reported": 15
  },
  {
    "compound": "COc1cc2c(c(OC)c1OC)CCC(c1cccc(C(=O)Nc3ccccc3)c1)O2 (stereo not given)",
    "measured_attribute": "inhibition at 10 µM",
    "endpoint_unit": "%",
    "reported": 12.2
  },
  {
    "compound": "COc1ccc(C(=O)Nc2cccc(C3CCc4c(cc(OC)c(OC)c4OC)O3)c2)cc1 (stereo not given)",
    "measured_attribute": "inhibition at 10 µM",
    "endpoint_unit": "%",
    "reported": 74.3
  }
]

Attention now turns to another entry.
Reading of inhibition at 10 µM for COc1cc2c(c(OC)c1OC)CCC(c1cccc(NC(=O)c3ccc(C#N)cc3)c1)O2 (stereo not given) with NCI-H460: 5.83

====

# Tested on: NCI-H522
# test_method_notes: Antiproliferative activity against human NCI-H522 cells assessed as inhibition of cell growth at 10 uM measured after 24 to 72 hrs by SRB method relative to control
# Type: functional
# condition_summary: time 24-72 hrs
measured_attribute: inhibition at 10 µM

[
  {
    "compound": "COc1cc2c(c(OC)c1OC)CCC(c1cccc(C(=O)Nc3ccccc3Br)c1)O2 (centres undefined)",
    "reported": "19.9%"
  },
  {
    "compound": "COc1cc2c(c(OC)c1OC)CCC(c1cccc(C(=O)NC(C)C)c1)O2 (centres undefined)",
    "reported": "17%"
  },
  {
    "compound": "COc1cccc(C(=O)Nc2cccc(C3CCc4c(cc(OC)c(OC)c4OC)O3)c2)c1 (centres undefined)",
    "reported": "33.5%"
  },
  {
    "compound": "COc1cc2c(c(OC)c1OC)CCC(c1cccc(NC(=O)c3ccc([N+](=O)[O-])cc3)c1)O2 (centres undefined)",
    "reported": "32.5%"
  }
]

Consider the additional compound presented here.
Form field, inhibition at 10 µM with NCI-H522, item COc1cc2c(c(OC)c1OC)CCC(c1cccc(NC(=O)C(C)C)c1)O2 (centres undefined) : 9.48%

====

Entries and their inhibition at 10 µM
# Test system: NCI-H522
# test_method_notes: Antiproliferative activity against human NCI-H522 cells assessed as inhibition of cell growth at 10 uM measured after 24 to 72 hrs by SRB method relative to control
# Assay type: functional
# condition_summary: time 24-72 hrs
Field: numeric (%). Do not append units.

Examples from the recorded data:
[
  {
    "molecule": "COc1cc2c(c(OC)c1OC)CCC(c1cccc(C(=O)Nc3ccc([N+](=O)[O-])cc3)c1)O2 (centres undefined)",
    "inhibition at 10 µM (%)": 50.4
  },
  {
    "molecule": "COc1ccc(NC(=O)c2cccc(C3CCc4c(cc(OC)c(OC)c4OC)O3)c2)cc1 (centres undefined)",
    "inhibition at 10 µM (%)": 78.2
  },
  {
    "molecule": "COc1ccc(C(=O)Nc2cccc(C3CCc4c(cc(OC)c(OC)c4OC)O3)c2)cc1 (centres undefined)",
    "inhibition at 10 µM (%)": 57.3
  },
  {
    "molecule": "COc1ccccc1C(=O)Nc1cccc(C2CCc3c(cc(OC)c(OC)c3OC)O2)c1 (centres undefined)",
    "inhibition at 10 µM (%)": 19.7
  }
]

Switching to the query record.
// recorded inhibition at 10 µM for COc1cc2c(c(OC)c1OC)CCC(c1cccc(NC(=O)c3ccc(Br)cc3)c1)O2 (centres undefined) : 25.4

====

# Test system: NCI-H460
# test_method_notes: cells
# Type: functional
# condition_summary: Homo sapiens, time 24-72 hrs
measured_attribute: inhibition at 10 µM (%)
// note: answer is a bare numeric in %

The cases that follow already have their inhibition at 10 µM on record.
[
  {
    "molecule": "COc1ccccc1C(=O)Nc1cccc(C2CCc3c(cc(OC)c(OC)c3OC)O2)c1 (centres undefined)",
    "target_or_test_system": "NCI-H460",
    "endpoint_unit": "%",
    "inhibition at 10 µM": 2.38
  },
  {
    "molecule": "COc1ccc(NC(=O)c2cccc(C3CCc4c(cc(OC)c(OC)c4OC)O3)c2)cc1 (centres undefined)",
    "target_or_test_system": "NCI-H460",
    "endpoint_unit": "%",
    "inhibition at 10 µM": 81.8
  },
  {
    "molecule": "COc1cc2c(c(OC)c1OC)CCC(c1cccc(C(=O)Nc3ccc(Br)cc3)c1)O2 (centres undefined)",
    "target_or_test_system": "NCI-H460",
    "endpoint_unit": "%",
    "inhibition at 10 µM": 16
  }
]

Item COc1cc2c(c(OC)c1OC)CCC(c1cccc(NC(=O)c3ccc(Br)cc3)c1)O2 (centres undefined) ; assay system NCI-H460; inhibition at 10 µM reported as 6.47
